amyloid nucleation score reference
- protocolText: amyloid nucleation score (Sup35N fusion, yeast selection) (log enrichment); library NNK1; higher = more nucleation; inactive = no reads after selection;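 further: zero at mode of non-aggregating sequences after 7 days selection at 30°C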
# respond with the number and nothing more

{"columns": ["substance", "amyloid nucleation score"],
 "data": [
  ["CYTHPVMSITLNSI", 2.36],
  ["SLLRRA", 0.575],
  ["IELSILSGRRDL", -0.406]
]}

Q: Note down amyloid nucleation score recorded for `RRRASGHRASY`
Ans: -0.52

Q: Note down amyloid nucleation score recorded for `DINNCSSEGRTYPFVIELPP`
Ans: 1.03

Q: Note down amyloid nucleation score recorded for `VLGKLEWCNLSSVTRAPCFM`
Ans: 0.14

Q: Note down amyloid nucleation score recorded for `VWYTRGRRHRGTTYMSNRLW`
Ans: -0.28

* * *

- protocolText: amyloid nucleation score (Sup35N fusion, yeast selection) (log enrichment); library NNK3; higher = more nucleation; inactive = no reads after selection
measuredQuantity: amyloid nucleation score

Examples from the recorded data:
{"columns": ["substance", "measurement"],
 "data": [
  ["YYSVMCRVRVA", "inactive"],
  ["NDGFQYRGHRWCLYNHL", "inactive"],
  ["LCLHERCDALSFDDNPYSTR", "inactive"],
  ["TPLESGLSI", "inactive"]
]}

Q: Note down amyloid nucleation score recorded for `RRLTGFMQVVRKNWVLGELA`
Ans: 1.04

Q: Note down amyloid nucleation score recorded for `HIVMVLRSLAYVSSSTHGRR`
Ans: inactive

Q: Note down amyloid nucleation score recorded for `WNSLMAK`
Ans: inactive

Q: Note down amyloid nucleation score recorded for `QGLSRIRTKQGLAWIGLYTV`
Ans: inactive

Q: Note down amyloid nucleation score recorded for `ACLLVRYHTDDSNKRCSL`
Ans: inactive

Q: Note down amyloid nucleation score recorded for `CRYSYSELKFVLFSGVGTSD`
Ans: inactive

Q: Note down amyloid nucleation score recorded for `YYFFRKYEENFSGSNTGLVI`
Ans: inactive

Q: Note down amyloid nucleation score recorded for `HLVMGWLTKPSSIFGLEDKR`
Ans: 1.13

* * *

- protocolText: amyloid nucleation score (Sup35N fusion, yeast selection) (log enrichment); library NNK1; higher = more nucleation; inactive = no reads after selection
Label scheme for amyloid nucleation score: lower than -0.09 is f, -0.09 and above is t.

{"columns": ["polymerSequence", "classAssignment"],
 "data": [
  ["SFSLSLVFRISPDGLGHFLQ", "t"],
  ["MVMMFTTDSMQAN", "t"],
  ["FIWGLKLVDFSLPVSAL", "f"],
  ["GQLWGEVVIVYCKFAMEWAY", "t"]
]}

Q: Hi, just wondering whether `SGTQKNRCTSLMQC` shows amyloid nucleation score of -0.09 or higher.
Ans: t

Q: Hi, just wondering whether `FISAACEEPVTFMGNYGGYG` shows amyloid nucleation score of -0.09 or higher.
Ans: t

* * *

- protocolText: amyloid nucleation score (Sup35N fusion, yeast selection) (log enrichment); library NNK2; higher = more nucleation; inactive = no reads after selection

{"columns": ["substance", "amyloid nucleation score"],
 "data": [
  ["WSANVPQWLLTRPYFDSHHN", "inactive"],
  ["SFGMQTEMYPGSIGLV", "inactive"],
  ["TWKVDF", "inactive"],
  ["ASASSVIAMRNRMGGLNRFC", -0.302]
]}
